Measured TGI, listed per entry.
- System: UACC-257 melanoma
- MEASUREMENT DESCRIPTION: NCI tumour cell line growth inhibition, 48 h

Previously resolved entries follow.
- MOLECULE: "O=C(O)c1c(O)c2cc(Br)ccc2oc1=O"
  TGI: "> 100 µM"
- MOLECULE: "Cc1cc(C)cc(-n2c3nc(=O)n(C)c(=O)c-3nc3ccccc32)c1"
  TGI: "31.2 µM"
- MOLECULE: "CCN(CC)CCO/N=C1\\CC[C@H]2[C@@H]3CC=C4C[C@@H](O)CC[C@]4(C)[C@H]3CC[C@]12C"
  TGI: "30.4 µM"
- MOLECULE: "COC(=O)c1sc(=S)sc1SCc1ccccc1CSc1sc(=S)sc1C(=O)OC"
  TGI: "> 100 µM"
- MOLECULE: "COc1cc(C)c(C(=O)O[C@H]2[C@H](O[C@H]3[C@@H](O)COC(O[C@H]4C[C@H]5[C@@H]6CC=C7C[C@@H](O)CC[C@]7(C)[C@H]6CC[C@]5(C)[C@H]4[C@H](C)C(=O)CCC(C)C)[C@@H]3OC(C)=O)OC[C@@H](O)[C@@H]2O)c(C)c1 (stereo partly specified)"
  TGI: "0.0738 µM"

# return TGI for `COC(=O)c1c[nH]c(=O)[nH]c1=O` , test system: UACC-257 melanoma
> 100 µM

# return TGI for `O=P(Oc1ccc(Cl)cc1)(Oc1ccc(Cl)cc1)N1CC1` , test system: UACC-257 melanoma
> 10 µM

# return TGI for `CCSc1oc(-c2ccccc2)nc1[P+](c1ccccc1)(c1ccccc1)c1ccccc1` , test system: UACC-257 melanoma
1.28 µM

# return TGI for `CN(C(=O)C1(C(=O)C=[N+]=[N-])CC1)c1ccccc1` , test system: UACC-257 melanoma
> 100 µM

# return TGI for `COc1ccc(C(=O)c2cc(OC)c(OC)c(OC)c2)cc1OC(C)=O` , test system: UACC-257 melanoma
> 100 µM

# return TGI for `O=C(c1cc(O)ccc1O)c1ccccc1C(Cl)(Cl)Cl` , test system: UACC-257 melanoma
> 100 µM

# return TGI for CCOC(=O)C1N(S(=O)(=O)c2ccc(C)cc2)CCC12c1ccccc1N(C(C)=O)C2C(/C=C/C(=O)OC)=C/C(=O)OC (stereo unspecified) , test system: UACC-257 melanoma
> 100 µM

# return TGI for `CS(=O)(=O)OCCN1CCC2(CC1)SSC1(CCN(CCOS(C)(=O)=O)CC1)S2` , test system: UACC-257 melanoma
> 100 µM

###

Measured TGI, listed per entry.
- Tested on: OVCAR-3 ovarian
- MEASUREMENT DESCRIPTION: NCI tumour cell line growth inhibition, 48 h

- COMPOUND: "S=c1nc[nH]c2c1ncn2Cc1ccco1"
  TESTED SYSTEM: "OVCAR-3 ovarian"
  TGI: "> 100 µM"
- COMPOUND: "COc1cc([C@@H]2c3cc4c(cc3[C@@H](NC(=O)c3ccc(N)cc3)C3COC(=O)[C@@H]32)OCO4)cc(OC)c1O (stereo partly drawn)"
  TESTED SYSTEM: "OVCAR-3 ovarian"
  TGI: "30.4 µM"
- COMPOUND: "CCCCC[C@@H]1OCO[C@@]2(C)/C=C(C)/C=C/C(=O)O[C@H]([C@@H](C)[C@@H](O)[C@H](C)[C@@]3(O)C[C@@H](O[C@H]4C[C@@H](O)[C@H](O)[C@@H](C)O4)[C@H](C)[C@@H](C)O3)[C@@H](OC)/C=C/C=C(\\C)C[C@@H]1[C@@H]2O (stereo in doubt)"
  TESTED SYSTEM: "OVCAR-3 ovarian"
  TGI: "2.46 µM"
- COMPOUND: "COc1cc2cc(C(=O)N3CC(CCl)c4c3cc(N)c3ccccc43)[nH]c2cc1OCCN(C)C (stereo not drawn)"
  TESTED SYSTEM: "OVCAR-3 ovarian"
  TGI: "0.0209 µM"
- COMPOUND: "C#CCNC(Cc1cnc[nH]1)C(=O)O (stereo not drawn)"
  TESTED SYSTEM: "OVCAR-3 ovarian"
  TGI: "> 100 µM"
- COMPOUND: "CC(=O)NS(=O)(=O)c1ccc(NC(=O)COC(=O)c2cccc3c(=O)c4ccccc4[nH]c23)cc1"
  TESTED SYSTEM: "OVCAR-3 ovarian"
  TGI: "> 100 µM"
- COMPOUND: "COc1ccc2cccc(C(=O)c3ccc(C)c4c3CCC4)c2c1"
  TESTED SYSTEM: "OVCAR-3 ovarian"
  TGI: "> 100 µM"

Hello, please tell me recorded TGI for this one: `Cc1nnc2cc(C(=O)O)c3ccccc3n2c1=O`
> 10 µM
